# maps each entry to its Emax (%) ± SEM
# subject.of.test: human β3 adrenergic receptor (Homo sapiens, UniProt P13945)
# Construct: expressed in transfected cells; host or cells: DXB-11 Chinese hamster ovary (CHO) cell line, stably transfected (phd expression vector)
# Sequence (P13945 whole entry): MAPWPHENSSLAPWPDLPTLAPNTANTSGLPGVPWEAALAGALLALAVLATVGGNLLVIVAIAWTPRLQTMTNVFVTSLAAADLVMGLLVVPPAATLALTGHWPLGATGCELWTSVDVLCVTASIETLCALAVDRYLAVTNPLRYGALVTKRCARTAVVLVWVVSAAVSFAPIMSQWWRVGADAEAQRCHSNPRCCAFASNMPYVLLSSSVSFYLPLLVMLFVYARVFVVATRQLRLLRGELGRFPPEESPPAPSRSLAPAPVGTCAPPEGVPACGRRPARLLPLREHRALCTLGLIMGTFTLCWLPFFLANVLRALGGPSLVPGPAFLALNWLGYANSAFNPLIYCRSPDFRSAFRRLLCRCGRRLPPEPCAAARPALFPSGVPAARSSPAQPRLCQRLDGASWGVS
# assay.protocol: whole cell receptor coupled c-AMP assay, human β3 receptor in CHO cells (EC50, Emax relative to isoproterenol)
# Assay type: cell-based
# assay.setup: Emax ± standard error of the mean; average of at least 3 runs except where n = 1; compound tested in the isolated form listed
A number alone suffices; assume n = 1%.

The cases that follow already have their Emax (%) ± SEM on record.
CC(C)(Cc1ccc(Oc2ncccc2C#N)cc1)NC[C@H](O)COc1ccccc1-c1ccn[nH]1 [Example 55]    37.5
CC(C)(Cc1ccc(Oc2ccc(C(N)=O)cn2)cc1)NC[C@H](O)COc1cccc(-c2ccno2)c1 [Example 35]    28.9

Task: Indicate its recorded Emax (%) ± SEM; the molecule in question is COC(=O)c1ccc(Oc2ccc(CC(C)(C)NC[C@H](O)COc3ccccc3-c3ccn(C)n3)cc2)nc1 [Example 114]
Result: 56.6
